Measured Decrease in blood pressure by item
Target: Voltage-gated L-type calcium channel (Rattus norvegicus, UniProt P22002+Q02485+P27732)
Test: Percentage decrease in blood pressure at a dose of 135 uM/kg for 12-18 hr in spontaneously hypertensive rats.
Type: functional, tissue-based

{"columns": ["compound", "tested.system", "units.of.measure", "Decrease in blood pressure"],
 "data": [
  ["COc1ccc([C@@H]2Cc3ccccc3N(CCN(C)C)C(=O)[C@@H]2C)cc1", "Voltage-gated L-type calcium channel (Rattus norvegicus, UniProt P22002+Q02485+P27732)", "%", 8],
  ["COc1ccc([C@@H]2Cc3c(cccc3C(F)(F)F)N(CCN(C)C(C)=O)C(=O)[C@@H]2OC(C)=O)cc1", "Voltage-gated L-type calcium channel (Rattus norvegicus, UniProt P22002+Q02485+P27732)", "%", 5],
  ["COc1ccc([C@@H]2Cc3cc(C(F)(F)F)ccc3N(CCN(C)C)C(=O)[C@@H]2OC(C)=O)cc1", "Voltage-gated L-type calcium channel (Rattus norvegicus, UniProt P22002+Q02485+P27732)", "%", 18],
  ["C=CC[C@H]1C(=O)N(CCN(C)C)c2cccc(C(F)(F)F)c2C[C@H]1c1ccc(OC)cc1", "Voltage-gated L-type calcium channel (Rattus norvegicus, UniProt P22002+Q02485+P27732)", "%", 29],
  ["COc1ccc([C@@H]2Cc3cc(C(F)(F)F)ccc3N(CCN(C)C)C(=O)[C@@H]2CC(C)=O)cc1", "Voltage-gated L-type calcium channel (Rattus norvegicus, UniProt P22002+Q02485+P27732)", "%", 28],
  ["COc1ccc([C@@H]2Cc3c(cccc3C(F)(F)F)N(CCN(C)C)C(=O)[C@@H]2C)cc1", "Voltage-gated L-type calcium channel (Rattus norvegicus, UniProt P22002+Q02485+P27732)", "%", 22],
  ["COc1ccc([C@@H]2Cc3c(C(=O)OCc4ccccc4)cccc3N(CCN(C)C)C(=O)[C@@H]2OC(C)=O)cc1", "Voltage-gated L-type calcium channel (Rattus norvegicus, UniProt P22002+Q02485+P27732)", "%", 8]
]}
